System: Fibroblast
Experiment: Incucyte cell viability with human fibroblast; further: unitless GR value; below 1 slowed growth and below 0 cell loss
Assay type: toxicity, cell-based
Details: 12 h, 10 µM, compound concentration 10 uM, replicate number 2
# t = Growth Rate below 0.5 (exclusive); f = Growth Rate at/above 0.5

Study these solved cases before continuing.
molecule="O=C(Nc1ccccc1Br)N[C@@H]1CCN(c2ccc(C(F)(F)F)cn2)C1 [SB-705498]" target_or_test_system=Fibroblast category_label=f
molecule=Cc1ccc(S(=O)(=O)Nc2ccc(-n3nc(C(F)(F)F)cc3C(F)(F)F)cc2)cc1 target_or_test_system=Fibroblast category_label=f
molecule="CC(=O)Nc1ncc(CN2CCC[C@H](Cc3cc(C)nc(C)c3)C2)s1 [JNJ-65355394]" target_or_test_system=Fibroblast category_label=f

Would you kindly verify if Growth Rate of "Cc1ccc2c(NS(=O)(=O)c3ccccc3Cl)cccc2c1Oc1ncccc1-c1ccnc(N[C@H]2CCCNC2)n1.Cl" is strictly less than 0.5?
t

Input "Cc1cc(OCCC(C)(C)O)cc(C)c1-c1ccc(F)c2c1CC[C@H]2Oc1ccc2c(c1)OC[C@H]2CC(=O)O" ; condition: Growth Rate strictly below 0.5. Does it hold?
t

For "Cc1csc(S(=O)(=O)N(CC(C)C)c2cc3c(cc2OCc2ccc(C(=O)O)cc2)CCC3)n1" , is the recorded Growth Rate below the cut-off of 0.5?
f

Criterion: Growth Rate strictly below 0.5. Is it met by Nc1ncnc2c1c(I)cn2[C@@H]1O[C@H](CO)[C@@H](O)[C@H]1O [IODOTUBERCIDIN] ?
t

Determine if "COc1cc2nc(C)nc(N[C@H](C)c3cc(N)cc(C(F)(F)F)c3)c2cc1O[C@H]1CCOC1" shows Growth Rate strictly lower than 0.5.
t

Please check: Growth Rate for CC[C@H]1[C@@H](O)[C@@H]2[C@H](CC[C@]3(C)[C@@H]([C@H](C)CCC(=O)O)CC[C@@H]23)[C@@]2(C)CC[C@@H](O)C[C@@H]12 [OBETICHOLIC ACID] , strictly under 0.5 or not?
f

Please check: Growth Rate for "CN(C)C/C=C/C(=O)Nc1cccc(S(=O)(=O)N2CCC(NC(=O)c3n[nH]cc3NC(=O)c3c(Cl)cc(Cl)cc3Cl)CC2)c1" , strictly under 0.5 or not?
t

Confirm or reject: Growth Rate of "CN1CCN(C(=O)Cc2ccc(N/C(=C3\C(=O)Nc4cc(Cl)ccc43)c3ccccc3)cc2)CC1" lies strictly below 0.5
t

====

System: HEK-293T
Assay: Incucyte cell viability with HEK293T; further: unitless GR value; below 1 slowed growth and below 0 cell loss
Assay type: toxicity, cell-based
Details: human, 24 h, 10 µM, compound concentration 10 uM, replicate number 2
measured-quantity: Growth Rate

Guide cases for Growth Rate, answers given:
molecule=Cc1cc(OC2CCS(=O)(=O)CC2)cc(C)c1-c1cccc(COc2ccc(C(=O)O)c(F)c2)c1 target_or_test_system=HEK-293T reported_result=0.84
molecule=N[C@@H](Cn1cc(F)c(=O)[nH]c1=O)C(=O)O target_or_test_system=HEK-293T reported_result=0.96
molecule=C=CC(=O)Nc1ccc(C(=O)Nc2n[nH]c3c2CN(C(=O)N[C@H](CN(C)C)c2ccccc2)C3(C)C)cc1 target_or_test_system=HEK-293T reported_result=-0.16
molecule="CCOCCn1cc(C(=O)Nc2ccc(-n3nc(-c4cccnc4)cc3C(F)(F)F)cn2)ccc1=O [BI 1935]" target_or_test_system=HEK-293T reported_result=0.51
molecule="CS(=O)(=O)CCNCc1ccc(-c2ccc3ncnc(Nc4ccc(OCc5cccc(F)c5)c(Cl)c4)c3c2)o1 [LAPATINIB]" target_or_test_system=HEK-293T reported_result=0.87
molecule=COc1ccccc1S(=O)(=O)Nc1ccc2c(c1)CN(C)C(=O)N2 target_or_test_system=HEK-293T reported_result=0.9
molecule=Cl.Cl.NC1(c2ccc(-c3nc4ccn5c(=O)[nH]nc5c4cc3-c3ccccc3)cc2)CCC1 target_or_test_system=HEK-293T reported_result=-0.24
molecule=COc1cc(CN(CCN)C(=O)N[C@@H](C)c2ccccc2)ccc1OCc1ccccc1.Cl target_or_test_system=HEK-293T reported_result=0.74
molecule=C[C@@H]1COCCN1c1cc(=O)n2c(n1)N(Cc1cncc(Cl)c1)[C@H](C(F)(F)F)CC2 target_or_test_system=HEK-293T reported_result=0.45
molecule=CCN(CC)CCO[C@H]1CC[C@@]2(C)C(=CC[C@@H]3[C@@H]2CC[C@]2(C)C(=O)CC[C@@H]32)C1.Cl target_or_test_system=HEK-293T reported_result=0.52

// query Growth Rate value for entry "COc1ccc(CC[C@@H](OC(=O)[C@H]2CCCCN2C(=O)[C@@H](c2cc(OC)c(OC)c(OC)c2)C2CCCCC2)c2cccc(OCCN3CCOCC3)c2)cc1OC"
0.49

Sample "CCn1c(CNC(=O)c2nc(Cl)cnc2N)[n+](CC)c2ccc(C(=O)N(C)CCN(C)C)cc21.[Cl-]" — what was its Growth Rate?
0.84

Requested read-out: Growth Rate. Entry: "CCOc1ccc(S(=O)(=O)Nc2ccc(Cl)cc2C#Cc2cnc(C(=O)[O-])cc2OC)c2ncccc12.[K+]"
0.87

Look up Growth Rate for this molecule: "Oc1c(CN2CCCC2)cc(COCc2ccccc2)c2cccnc12"
-0.25

Quick one: Growth Rate for CCCCCCCC/C=C\CCCCCCCC(=O)NCCO [OLEOYLETHANOLAMIDE] ?
0.62

Given the entry COc1cc2c(cc1CC=C(C)C)C(=O)C[C@@H](c1ccc(O)cc1)O2 [BAVACHININ A] , report its measured Growth Rate.
0.92

# input molecule: "Cn1cc(NC(=O)c2ccc3nc4n(c3c2)CCCNC4=O)nc1C(=O)NC1CCCC1" ; wanted: its Growth Rate
0.9

// Growth Rate lookup, key: "COc1ccc(CCCN2CCC(COC(c3ccccc3)c3ccccc3)CC2)cc1.Cl"
0.31

====

Reported Growth Rate values are given for each entry in this list.
Test system: HEK-293T
Experiment: Incucyte cell viability with HEK293T; further: unitless GR value; below 1 slowed growth and below 0 cell loss
Format: toxicity, cell-based
Conditions: human, 12 h, 10 µM, compound concentration 10 uM, replicate number 2

Some compounds with known Growth Rate results, for comparison:
compound=CC(C)Oc1ccc(F)c(-c2cnc(N)c(C(=O)Nc3cnccc3N3CCC[C@@H](C(=O)O)C3)n2)c1 reported_result=-0.28
compound=Cc1cc(Nc2ncc(Cl)c(Nc3ccccc3S(=O)(=O)C(C)C)n2)c(OC(C)C)cc1C1CCNCC1 reported_result=-0.49
compound=O=C(Nc1ccc(-n2nc(C(F)(F)F)cc2C(F)(F)F)cc1)c1ccncc1F reported_result=0.24
compound=CCC(=O)N[C@H]1CC[C@@H](C(=O)N(C)c2ccc(-c3nc4ccccc4o3)cc2)C1 reported_result=0.26
compound="CCCCc1oc2ccccc2c1C(=O)c1cc(I)c(OCCN(CC)CC)c(I)c1.Cl [AMIODARONE HYDROCHLORIDE]" reported_result=-0.11

State the recorded Growth Rate for this entry: "CN1CCN(c2ccc(C(=O)Nc3n[nH]c4ccc(Cc5cc(F)cc(F)c5)cc34)c(NC3CCOCC3)c2)CC1"
-0.8

Growth Rate lookup needed for "Nc1ncc2c(n1)-c1c([nH]c3ccc(C4CC4)cc13)CCCC2" , thanks.
0.69

Give its Growth Rate value. Item: "O=C(Cc1ccccc1[N+](=O)[O-])Nc1ccc(-c2ccc(C(O)(C(F)(F)F)C(F)(F)F)cc2F)cc1"
0.64

# Growth Rate lookup, item "Cc1cc(O)c(-c2ccc([C@@H](C)CN(C)C)cc2)c2c1[nH]c(=O)c1sccc12"
-0.74

Entry "Cn1cc(-c2cnc3ccc4ccc(CS(=O)(=O)NCc5ccccn5)cc4c(=O)c3c2)cn1" has what Growth Rate?
0.34

Which Growth Rate value belongs to CCC(C(=O)Nc1ccc(-c2cc3ccccc3s2)c(C(N)=O)c1)c1nccs1 (stereo not drawn) ?
0.52

Bench note: what Growth Rate did "O=C(O)[C@]1(Cc2cccc(Nc3nccs3)n2)CC[C@@H](Oc2cccc(Cl)c2F)CC1" show?
0.16

May I ask what Growth Rate has been recorded for "CNc1nc(-c2ccc3c(N)n[nH]c3c2)cc(N2C[C@@H](C(=O)NC3CCCCC3)CC[C@H]2C)n1" ?
0.66

Field request: Growth Rate | item: "CC#CC(=O)N1CCN(c2nc(-c3ccc(Oc4ccccc4)cc3)c(C(N)=O)s2)CC1"
0.74

What Growth Rate value was documented for this compound, "CCN1CCN(Cc2ccc(NC(=O)c3ccc(C)c(Oc4ccnc5[nH]ccc45)c3)cc2C(F)(F)F)CC1.Cl.Cl.Cl.O" ?
-0.8

Which value of Growth Rate has been reported for "CC(C)(C)c1cc(C(C)(C)C)c(NC(=O)c2c[nH]c3ccccc3c2=O)cc1O" in the records?
0.69

Need Growth Rate of "CCn1c(-c2ccncc2)cc2c1CCNC2=O" , thanks.
-0.55

Would you mind telling me what Growth Rate value was observed for "COc1ccc(CSc2nnc(-c3ccc4ncsc4c3)o2)cc1C(F)(F)F" ?
0.75

Quick one: Growth Rate for CN(C)c1cc2c(Nc3ccc4c(cnn4Cc4ccccc4)c3)ncnc2cn1 [GW282974X] ?
0.95

For "CC(C)(C)OC(=O)CN(Cc1ccc(Cl)cc1)Cc1ccc([N+](=O)[O-])s1" , what is its reported Growth Rate?
0.91

// Growth Rate lookup, key: "CC(=O)N(CCN(C)C)c1ccc(N/C(=C2\C(=O)Nc3cc(Cl)ccc32)c2ccccc2)cn1"
-0.71

Consider the compound "COc1ccc(CCCN2CCC(COC(c3ccccc3)c3ccccc3)CC2)cc1.Cl" and give its measured Growth Rate.
0.28

# Growth Rate lookup, item OCC1OC(n2cnc3cc(Cl)c(Cl)cc32)C(O)C1O (stereo not drawn)
0.83

Return reported Growth Rate; argument: CC(C)S(=O)(=O)c1ccccc1Nc1nc(N[C@@H]2CCCN(CCCCCCCNC(=O)COc3cccc4c3C(=O)N(C3CCC(=O)N(C)C3=O)C4=O)C2)ncc1Cl (stereo partly drawn)
-0.61

# query: Growth Rate of entry "N#Cc1cccc(-c2nc(-c3cccnc3)no2)c1"
0.6
